In this section we review reported Luminescence at the given time in minutes: 240 values for a set of substances.
tested on: Pseudomonas aeruginosa strain H1001 fliC::luxCDABE; experiment: Luminescence-based assay for the non-cleaved (bound) peptides on cellulose membranes; format: cell-based; conditions: cellulose-bound peptide, 240 min
Ends that are not written are not given here.
Answers without a unit are incomplete; give the number and then its unit.

# Substance, Value Observed
data = [
    ("VRLRIRVAVIRA-NH2 (C-terminus assumed) [Bac034]", "63 RLU"),
    ("RARIVRVRVILA [Bac016]", "22 RLU"),
    ("RVLRVVRAAIRI [Bac035]", "2577 RLU"),
    ("RRVAIVVIARLR [Bac018]", "39 RLU"),
    ("RIVLRRAAVIRV [Bac039]", "5392 RLU"),
    ("VIALRIAVRRVR [Bac045]", "35 RLU"),
    ("RVLIVIRARRVA-NH2 (C-terminus assumed) [Bac043]", "52 RLU"),
    ("VILARRRVRIAV [Bac017]", "214 RLU"),
]

Response field Luminescence at the given time in minutes: 240 (Pseudomonas aeruginosa strain H1001 fliC::luxCDABE) for item RAIRVRRIVLAV [Bac037] : 46 RLU

Lab note: substance IVRVAVALRRIR [Bac005] tested on Pseudomonas aeruginosa strain H1001 fliC::luxCDABE; recorded Luminescence at the given time in minutes: 240 was 1791 RLU

Recorded Luminescence at the given time in minutes: 240 for RRRVIVAVLARI [Bac046] on Pseudomonas aeruginosa strain H1001 fliC::luxCDABE was 53 RLU

Given the substance ILRRVRVRAVAI-NH2 (C-terminus assumed) [Bac022] and test system Pseudomonas aeruginosa strain H1001 fliC::luxCDABE, the measured Luminescence at the given time in minutes: 240 is 2966 RLU

Item RAVAVIIRLRRV-NH2 (C-terminus assumed) [Bac014] ; assay system Pseudomonas aeruginosa strain H1001 fliC::luxCDABE; Luminescence at the given time in minutes: 240 reported as 12876 RLU

Simply: ARRLIVRVRVIA [Bac003] , Pseudomonas aeruginosa strain H1001 fliC::luxCDABE, Luminescence at the given time in minutes: 240 = 36 RLU

The measurements presented in this section are drawn from patent US20080207522A1.
